studySystem: PDE1A (Homo sapiens, UniProt P54750)
Construct: purchased Reaction Biology Corporation, Malvern, Pa
Sequence (P54750 whole entry): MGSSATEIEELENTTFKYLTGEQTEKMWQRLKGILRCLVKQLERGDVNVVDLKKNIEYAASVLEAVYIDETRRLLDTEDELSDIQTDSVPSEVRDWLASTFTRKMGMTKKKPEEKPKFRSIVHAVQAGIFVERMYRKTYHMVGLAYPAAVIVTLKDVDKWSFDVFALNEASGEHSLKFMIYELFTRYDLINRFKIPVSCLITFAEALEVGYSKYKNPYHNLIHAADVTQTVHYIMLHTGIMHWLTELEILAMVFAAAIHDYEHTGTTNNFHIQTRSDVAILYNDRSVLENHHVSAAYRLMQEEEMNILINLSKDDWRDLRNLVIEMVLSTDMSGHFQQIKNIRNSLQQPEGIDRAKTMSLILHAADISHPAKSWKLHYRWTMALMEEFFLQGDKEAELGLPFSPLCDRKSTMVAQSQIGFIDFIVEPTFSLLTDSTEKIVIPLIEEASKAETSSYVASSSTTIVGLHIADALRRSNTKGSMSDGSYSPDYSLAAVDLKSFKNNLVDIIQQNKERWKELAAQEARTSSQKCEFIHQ
testProtocol: Phosphodiesterase enzyme screening assay, PDE1A
Type: biochemical
reportedConditions: ratio of IC50 values; value greater than 1 indicates greater selectivity for PDE9A2
measuredAttribute: PDE1A selectivity (versus PDE9A2)
Output spec: single numeric token, no unit.

Example results:
molecule: CC1CN(CC2CCOCC2)CC1c1nn2c(C3CCOCC3)ncc2c(=O)[nH]1 (single isomer, unassigned; (+))
PDE1A selectivity (versus PDE9A2): 77
--
molecule: CC1CN(Cc2cnn3c2CCCC3)CC1c1nn2c(C3CCOCC3)ncc2c(=O)[nH]1 (single isomer, unassigned; (+))
PDE1A selectivity (versus PDE9A2): 337
--
molecule: CC1CN(CC2CCN(C(=O)OC(C)(C)C)CC2)CC1c1nn2c(C3CCOCC3)ncc2c(=O)[nH]1 (single isomer, unassigned; (-))
PDE1A selectivity (versus PDE9A2): 129
--
molecule: COc1ccc(CN2CC(C)C(c3nn4c(C5CCOCC5)ncc4c(=O)[nH]3)C2)nc1 (single isomer, unassigned; (+))
PDE1A selectivity (versus PDE9A2): 216
--
molecule: CC1CN(Cc2ncno2)CC1c1nn2c(C3CCOCC3)ncc2c(=O)[nH]1 (single isomer, unassigned; (+))
PDE1A selectivity (versus PDE9A2): 650

Next, consider the following molecule.
Task: Please look at this molecule and report its PDE1A selectivity (versus PDE9A2): Cc1nc(CN2CC(C)C(c3nn4c(C5CCOCC5)ncc4c(=O)[nH]3)C2)cs1 (single isomer, unassigned; (+))
Result: 12

* * *

studySystem: PDE1B (Homo sapiens, UniProt Q01064)
Construct: purchased Reaction Biology Corporation, Malvern, Pa
Sequence (Q01064 whole entry): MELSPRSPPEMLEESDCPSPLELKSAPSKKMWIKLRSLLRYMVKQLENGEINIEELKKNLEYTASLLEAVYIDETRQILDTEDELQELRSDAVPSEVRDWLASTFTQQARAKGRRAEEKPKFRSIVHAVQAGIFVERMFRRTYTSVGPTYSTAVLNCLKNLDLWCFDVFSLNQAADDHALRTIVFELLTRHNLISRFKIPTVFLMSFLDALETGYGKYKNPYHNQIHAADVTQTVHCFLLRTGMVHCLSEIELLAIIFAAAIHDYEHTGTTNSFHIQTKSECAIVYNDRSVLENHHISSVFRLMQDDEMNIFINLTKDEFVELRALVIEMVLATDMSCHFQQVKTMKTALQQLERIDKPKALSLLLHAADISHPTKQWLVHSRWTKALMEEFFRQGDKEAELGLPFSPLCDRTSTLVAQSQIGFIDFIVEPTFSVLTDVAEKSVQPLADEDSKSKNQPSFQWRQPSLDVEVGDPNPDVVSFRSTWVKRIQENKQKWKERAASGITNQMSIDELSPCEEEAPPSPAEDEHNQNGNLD
testProtocol: Phosphodiesterase enzyme screening assay, PDE1B
Format: biochemical
reportedConditions: Table 1; ratio of IC50 values; value greater than 1 indicates greater selectivity for PDE9A2
From the text: Compounds of the invention were screened against PDE1A, PDE1B, PDE2A, PDE3A, PDE3B, PDE4A1A, PDE4B1, PDE4D3, PDE5A1, PDE6C, PDE7A, PDE8A1, PDE9A2, PDE10A2 AND PDE11A isoforms of the phosphodiesterase enzyme to determine activity and overall selectivity through comparative analysis. […] Where 8-methoxy-IBMX and Zaprinast were used as reference inhibitors. […]
measuredAttribute: PDE1B selectivity (versus PDE9A2)
Output spec: single numeric token, no unit.

Example results:
compound: CC1CN(Cc2nc3ccccc3[nH]2)CC1c1nn2c(C3CCOCC3)ncc2c(=O)[nH]1 (single isomer, unassigned; (-))
studySystem: PDE1B (Homo sapiens, UniProt Q01064)
value: 540

compound: COc1cccc(CN2CC(C)C(c3nn4c(C5CCOCC5)ncc4c(=O)[nH]3)C2)n1 (single isomer, unassigned; (+))
studySystem: PDE1B (Homo sapiens, UniProt Q01064)
value: 571

compound: CC1CN(Cc2cnccn2)CC1c1nn2c(C3CCOCC3)ncc2c(=O)[nH]1 (single isomer, unassigned; (+))
studySystem: PDE1B (Homo sapiens, UniProt Q01064)
value: 178

compound: CC1CN(Cc2ccc(C#N)cc2)CC1c1nn2c(C3CCOCC3)ncc2c(=O)[nH]1 (single isomer, unassigned; (-))
studySystem: PDE1B (Homo sapiens, UniProt Q01064)
value: 1445

compound: CC1CN(Cc2ccccc2C#N)CC1c1nn2c(C3CCOCC3)ncc2c(=O)[nH]1 (single isomer, unassigned; (+))
studySystem: PDE1B (Homo sapiens, UniProt Q01064)
value: 220

compound: CC1CN(Cc2ccccc2)CC1c1nn2c(C3CCCOC3)ncc2c(=O)[nH]1 (single isomer, unassigned)
studySystem: PDE1B (Homo sapiens, UniProt Q01064)
value: 38

Task: Please look at this compound and report its PDE1B selectivity (versus PDE9A2): CC1CN(Cc2ncc3ccccc3n2)CC1c1nn2c(C3CCOCC3)ncc2c(=O)[nH]1 (single isomer, unassigned; (-)) [(−)-2-((3,4-trans)-4-methyl-1-(quinazolin-2-ylmethyl)pyrroli]
Result: 2000

Task: Please look at this compound and report its PDE1B selectivity (versus PDE9A2): CC1CN(Cc2ccc3ncccc3c2)CC1c1nn2c(C3CCOCC3)ncc2c(=O)[nH]1 (single isomer, unassigned; (+))
Result: 1525

Task: Please look at this compound and report its PDE1B selectivity (versus PDE9A2): CC1CN(Cc2cn3ccccc3n2)CC1c1nn2c(C3CCOCC3)ncc2c(=O)[nH]1 (single isomer, unassigned; (+))
Result: 734

Task: Please look at this compound and report its PDE1B selectivity (versus PDE9A2): CC1CN(C(=O)c2cccc(F)c2)CC1c1nn2c(C3CCOCC3)ncc2c(=O)[nH]1 (single isomer, unassigned; (-))
Result: 26

Task: Please look at this compound and report its PDE1B selectivity (versus PDE9A2): CC1CN(Cc2ccc(F)cc2)CC1c1nn2c(C3CCOCC3)ncc2c(=O)[nH]1 (single isomer, unassigned; (+))
Result: 714

Task: Please look at this compound and report its PDE1B selectivity (versus PDE9A2): CC1CN(Cc2nc3ccccn3n2)CC1c1nn2c(C3CCOCC3)ncc2c(=O)[nH]1 (single isomer, unassigned; (+))
Result: 457

Task: Please look at this compound and report its PDE1B selectivity (versus PDE9A2): CC1CN(C(=O)c2ccc(C#N)cc2)CC1c1nn2c(C3CCOCC3)ncc2c(=O)[nH]1 (single isomer, unassigned; (-))
Result: 21

* * *

Listed next: entries and their corresponding PDE1B selectivity (versus PDE9A2).
studySystem: PDE1B (Homo sapiens, UniProt Q01064)
Construct: purchased Reaction Biology Corporation, Malvern, Pa
testProtocol: Phosphodiesterase enzyme screening assay, PDE1B
Format: biochemical
reportedConditions: Table 1; ratio of IC50 values; value greater than 1 indicates greater selectivity for PDE9A2
Output spec: single numeric token, no unit.

Example results:
molecule: CC1CN(Cc2cccc(N(C)C)c2)CC1c1nn2c(C3CCOCC3)ncc2c(=O)[nH]1 (single isomer, unassigned; (+))
PDE1B selectivity (versus PDE9A2): 923

molecule: Cc1ccccc1CN1CC(C)C(c2nn3c(C4CCOCC4)ncc3c(=O)[nH]2)C1 (single isomer, unassigned; (+))
PDE1B selectivity (versus PDE9A2): 105

molecule: CC1CN(Cc2ccncn2)CC1c1nn2c(C3CCOCC3)ncc2c(=O)[nH]1 (single isomer, unassigned; (+))
PDE1B selectivity (versus PDE9A2): 174

molecule: CC1CN(Cc2ccccc2Cl)CC1c1nn2c(C3CCOCC3)ncc2c(=O)[nH]1 (single isomer, unassigned; (+))
PDE1B selectivity (versus PDE9A2): 48

molecule: CC1CN(Cc2cnc3ccccc3n2)CC1c1nn2c(C3CCOCC3)ncc2c(=O)[nH]1 (single isomer, unassigned; (+))
PDE1B selectivity (versus PDE9A2): 1130

molecule: Cc1cc(CN2CC(C)C(c3nn4c(C5CCOCC5)ncc4c(=O)[nH]3)C2)n(C)n1 (single isomer, unassigned; (+))
PDE1B selectivity (versus PDE9A2): 670

Task: Please look at this molecule and report its PDE1B selectivity (versus PDE9A2): CCc1ncc(CN2CC(C)C(c3nn4c(C5CCOCC5)ncc4c(=O)[nH]3)C2)cn1 (single isomer, unassigned; (+))
Result: 1920

* * *

studySystem: PDE1A (Homo sapiens)
Construct: purchased Reaction Biology Corporation, Malvern, Pa
testProtocol: Phosphodiesterase enzyme screening assay, PDE1A
Format: biochemical
reportedConditions: ratio of IC50 values, PDE1A versus PDE9A2; value greater than 1 = greater selectivity for PDE9A2
Source text: Compounds of the invention were screened against PDE1A, PDE1B, PDE2A, PDE3A, PDE3B, PDE4A1A, PDE4B1, PDE4D3, PDE5A1, PDE6C, PDE7A, PDE8A1, PDE9A2, PDE10A2 AND PDE11A isoforms of the phosphodiesterase enzyme to determine activity and overall selectivity through comparative analysis. […] Where 8-methoxy-IBMX and Zaprinast were used as reference inhibitors. […]
Label fulfilled when PDE1A selectivity (versus PDE9A2) is at or above 500; anything below gets not fulfilled.

Some entries whose results are on file:
compound: CC1CN(Cc2ccc3cccc(F)c3n2)CC1c1nn2c(C3CCOCC3)ncc2c(=O)[nH]1 (single isomer, unassigned; (+))
label: not fulfilled

compound: CC1CN(Cc2ccc(F)cn2)CC1c1nn2c(C3CCOCC3)ncc2c(=O)[nH]1 (single isomer, unassigned; (+))
label: not fulfilled

Task: API: above_or_equal(metric=PDE1A selectivity (versus PDE9A2), cutoff=500) for item COc1ccnc(CN2CC(C)C(c3nn4c(C5CCOCC5)ncc4c(=O)[nH]3)C2)c1 (single isomer, unassigned; (+))
Result: not fulfilled

Task: API: above_or_equal(metric=PDE1A selectivity (versus PDE9A2), cutoff=500) for item CC1CN(Cc2ccoc2)CC1c1nn2c(C3CCOCC3)ncc2c(=O)[nH]1 (single isomer, unassigned; (+))
Result: not fulfilled

Task: API: above_or_equal(metric=PDE1A selectivity (versus PDE9A2), cutoff=500) for item CC1CN(Cc2ccn(C)n2)CC1c1nn2c(C3CCOCC3)ncc2c(=O)[nH]1 (single isomer, unassigned; (+))
Result: fulfilled

Task: API: above_or_equal(metric=PDE1A selectivity (versus PDE9A2), cutoff=500) for item CC1CN(Cc2cccc3cccnc23)CC1c1nn2c(C3CCOCC3)ncc2c(=O)[nH]1 (single isomer, unassigned; (+))
Result: fulfilled

Task: API: above_or_equal(metric=PDE1A selectivity (versus PDE9A2), cutoff=500) for item CC1CN(Cc2ccc(C(F)(F)F)cn2)CC1c1nn2c(C3CCOCC3)ncc2c(=O)[nH]1 (single isomer, unassigned; (+))
Result: not fulfilled

// provenance: patent US9969742B2
